procedureSummary: Nelfinavir plasma pharmacokinetics (HPLC-MS, noncompartmental)
Format: in vivo, human
details: human, in vivo; Cycle 1 Day 1, first oral dose 3125 mg, mean, n=13; read-out: Tmax
measuredParameter: Tmax

Task: Respond only with Tmax recorded for Cc1c(O)cccc1C(=O)N[C@@H](CSc1ccccc1)[C@H](O)CN1C[C@H]2CCCC[C@H]2C[C@H]1C(=O)NC(C)(C)C
Result: 4.8 h

====

procedureSummary: Nelfinavir plasma pharmacokinetics (HPLC-MS, noncompartmental)
Format: in vivo, human
details: human, in vivo, po, 1875 mg
measuredParameter: half-life

Task: Respond only with half-life recorded for Cc1c(O)cccc1C(=O)N[C@@H](CSc1ccccc1)[C@H](O)CN1C[C@H]2CCCC[C@H]2C[C@H]1C(=O)NC(C)(C)C
Result: 11.9 h

====

procedureSummary: Nelfinavir plasma pharmacokinetics (HPLC-MS, noncompartmental)
Type: in vivo, human
details: human, in vivo, po, 1250 mg
measuredParameter: half-life (h)
# unit: h | format: bare number

Task: Respond only with half-life recorded for Cc1c(O)cccc1C(=O)N[C@@H](CSc1ccccc1)[C@H](O)CN1C[C@H]2CCCC[C@H]2C[C@H]1C(=O)NC(C)(C)C
Result: 6.6

====

procedureSummary: Nelfinavir plasma pharmacokinetics (HPLC-MS, noncompartmental)
Type: in vivo, human
details: human, in vivo; Cycle 1 Day 1, first oral dose 3125 mg, mean, n=13; read-out: Cmax
measuredParameter: Cmax
Respond with the figure and its unit, in that order.

Task: Respond only with Cmax recorded for Cc1c(O)cccc1C(=O)N[C@@H](CSc1ccccc1)[C@H](O)CN1C[C@H]2CCCC[C@H]2C[C@H]1C(=O)NC(C)(C)C
Result: 7640 ng/mL

====

procedureSummary: Nelfinavir plasma pharmacokinetics (HPLC-MS, noncompartmental)
Type: in vivo, human
details: human, in vivo, po, 1250 mg
measuredParameter: Cmax (ng/mL)
# unit: ng/mL | format: bare number

Task: Respond only with Cmax recorded for Cc1c(O)cccc1C(=O)N[C@@H](CSc1ccccc1)[C@H](O)CN1C[C@H]2CCCC[C@H]2C[C@H]1C(=O)NC(C)(C)C
Result: 2390

====

procedureSummary: Nelfinavir plasma pharmacokinetics (HPLC-MS, noncompartmental)
Format: in vivo, human
details: human, in vivo, po, 3750 mg
measuredParameter: AUC(0-inf)
Respond with the figure and its unit, in that order.

Task: Respond only with AUC(0-inf) recorded for Cc1c(O)cccc1C(=O)N[C@@H](CSc1ccccc1)[C@H](O)CN1C[C@H]2CCCC[C@H]2C[C@H]1C(=O)NC(C)(C)C
Result: 131 µg·h/mL

====

procedureSummary: Nelfinavir plasma pharmacokinetics (HPLC-MS, noncompartmental)
Format: in vivo, human
details: human, in vivo, po, 2500 mg
measuredParameter: half-life (h)
# unit: h | format: bare number

Task: Respond only with half-life recorded for Cc1c(O)cccc1C(=O)N[C@@H](CSc1ccccc1)[C@H](O)CN1C[C@H]2CCCC[C@H]2C[C@H]1C(=O)NC(C)(C)C
Result: 4.5

====

procedureSummary: Nelfinavir plasma pharmacokinetics (HPLC-MS, noncompartmental)
Assay type: in vivo, human
details: human, in vivo; Cycle 2 Day 1 steady state, 3125 mg bid, mean; read-out: AUClast
measuredParameter: AUC(0-t) (ng·h/mL)
# unit: ng·h/mL | format: bare number

Task: Respond only with AUC(0-t) recorded for Cc1c(O)cccc1C(=O)N[C@@H](CSc1ccccc1)[C@H](O)CN1C[C@H]2CCCC[C@H]2C[C@H]1C(=O)NC(C)(C)C
Result: 60000

====

procedureSummary: Nelfinavir plasma pharmacokinetics (HPLC-MS, noncompartmental)
Assay type: in vivo, human
details: human, in vivo, po, 2500 mg
measuredParameter: Tmax (h)
# unit: h | format: bare number

Task: Respond only with Tmax recorded for Cc1c(O)cccc1C(=O)N[C@@H](CSc1ccccc1)[C@H](O)CN1C[C@H]2CCCC[C@H]2C[C@H]1C(=O)NC(C)(C)C
Result: 6

====

procedureSummary: Nelfinavir plasma pharmacokinetics (HPLC-MS, noncompartmental)
Format: in vivo, human
details: human, in vivo, po, 3750 mg
measuredParameter: Cmax
Respond with the figure and its unit, in that order.

Task: Respond only with Cmax recorded for Cc1c(O)cccc1C(=O)N[C@@H](CSc1ccccc1)[C@H](O)CN1C[C@H]2CCCC[C@H]2C[C@H]1C(=O)NC(C)(C)C [nelfinavir, Nelfinavir]
Result: 7920 ng/mL

====

procedureSummary: Nelfinavir plasma pharmacokinetics (HPLC-MS, noncompartmental)
Assay type: in vivo, human
details: human, in vivo, po, 1250 mg
Experimental: To determine CYP3A4 phenotype, a single 3 mg oral dose of midazolam hydrochloride, a CYP3A4 substrate, was administered at day -2 (2 days prior to commencing nelfinavir) and again at steady state (cycle 1 day 20). […] Plasma concentrations of midazolam and nelfinavir were determined with a validated assay employing high performance liquid chromatography (HPLC) with mass spectrometric detection. […]
measuredParameter: AUC(0-t) (ng·h/mL)
# unit: ng·h/mL | format: bare number

Task: Respond only with AUC(0-t) recorded for Cc1c(O)cccc1C(=O)N[C@@H](CSc1ccccc1)[C@H](O)CN1C[C@H]2CCCC[C@H]2C[C@H]1C(=O)NC(C)(C)C
Result: 16600

====

procedureSummary: Nelfinavir plasma pharmacokinetics (HPLC-MS, noncompartmental)
Assay type: in vivo, human
details: human, in vivo, po, 1875 mg
measuredParameter: AUC(0-inf) (µg·h/mL)
# unit: µg·h/mL | format: bare number

Task: Respond only with AUC(0-inf) recorded for Cc1c(O)cccc1C(=O)N[C@@H](CSc1ccccc1)[C@H](O)CN1C[C@H]2CCCC[C@H]2C[C@H]1C(=O)NC(C)(C)C
Result: 189

====

procedureSummary: Nelfinavir plasma pharmacokinetics (HPLC-MS, noncompartmental)
Type: in vivo, human
details: human, in vivo; Cycle 2 Day 1 steady state, 3125 mg bid, mean, n=7; read-out: Cmax
measuredParameter: Cmax (ng/mL)
# unit: ng/mL | format: bare number

Task: Respond only with Cmax recorded for Cc1c(O)cccc1C(=O)N[C@@H](CSc1ccccc1)[C@H](O)CN1C[C@H]2CCCC[C@H]2C[C@H]1C(=O)NC(C)(C)C
Result: 9550

====

procedureSummary: Nelfinavir plasma pharmacokinetics (HPLC-MS, noncompartmental)
Format: in vivo, human
details: human, in vivo; Cycle 1 Day 1, first oral dose 3125 mg, mean, n=13; read-out: AUClast
measuredParameter: AUC(0-t)

Task: Respond only with AUC(0-t) recorded for Cc1c(O)cccc1C(=O)N[C@@H](CSc1ccccc1)[C@H](O)CN1C[C@H]2CCCC[C@H]2C[C@H]1C(=O)NC(C)(C)C
Result: 56900 ng·h/mL

====

procedureSummary: Nelfinavir plasma pharmacokinetics (HPLC-MS, noncompartmental)
Assay type: in vivo, human
details: human, in vivo; Cycle 2 Day 1 steady state, 3125 mg bid, mean, n=7; read-out: Tmax
Description: To determine CYP3A4 phenotype, a single 3 mg oral dose of midazolam hydrochloride, a CYP3A4 substrate, was administered at day -2 (2 days prior to commencing nelfinavir) and again at steady state (cycle 1 day 20). […] Plasma concentrations of midazolam and nelfinavir were determined with a validated assay employing high performance liquid chromatography (HPLC) with mass spectrometric detection. […]
measuredParameter: Tmax
Respond with the figure and its unit, in that order.

Task: Respond only with Tmax recorded for Cc1c(O)cccc1C(=O)N[C@@H](CSc1ccccc1)[C@H](O)CN1C[C@H]2CCCC[C@H]2C[C@H]1C(=O)NC(C)(C)C [nelfinavir, Nelfinavir]
Result: 3.3 h

====

procedureSummary: Nelfinavir plasma pharmacokinetics (HPLC-MS, noncompartmental)
Format: in vivo, human
details: human, in vivo, po, 1875 mg
measuredParameter: Tmax
Respond with the figure and its unit, in that order.

Task: Respond only with Tmax recorded for Cc1c(O)cccc1C(=O)N[C@@H](CSc1ccccc1)[C@H](O)CN1C[C@H]2CCCC[C@H]2C[C@H]1C(=O)NC(C)(C)C
Result: 3.8 h

====

procedureSummary: Nelfinavir plasma pharmacokinetics (HPLC-MS, noncompartmental)
Type: in vivo, human
details: human, in vivo; Cycle 1 Day 1, first oral dose 2500 mg, mean, n=3; read-out: Cmax
measuredParameter: Cmax (ng/mL)
# unit: ng/mL | format: bare number

Task: Respond only with Cmax recorded for Cc1c(O)cccc1C(=O)N[C@@H](CSc1ccccc1)[C@H](O)CN1C[C@H]2CCCC[C@H]2C[C@H]1C(=O)NC(C)(C)C
Result: 9740

====

procedureSummary: Nelfinavir plasma pharmacokinetics (HPLC-MS, noncompartmental)
Format: in vivo, human
details: human, in vivo; Cycle 1 Day 1, first oral dose 3125 mg, mean, n=10; read-out: T1/2 (converted)
measuredParameter: half-life (h)
# unit: h | format: bare number

Task: Respond only with half-life recorded for Cc1c(O)cccc1C(=O)N[C@@H](CSc1ccccc1)[C@H](O)CN1C[C@H]2CCCC[C@H]2C[C@H]1C(=O)NC(C)(C)C
Result: 9.2

====

procedureSummary: Nelfinavir plasma pharmacokinetics (HPLC-MS, noncompartmental)
Type: in vivo, human
details: human, in vivo, po, 2500 mg
Protocol: To determine CYP3A4 phenotype, a single 3 mg oral dose of midazolam hydrochloride, a CYP3A4 substrate, was administered at day -2 (2 days prior to commencing nelfinavir) and again at steady state (cycle 1 day 20). […] Plasma concentrations of midazolam and nelfinavir were determined with a validated assay employing high performance liquid chromatography (HPLC) with mass spectrometric detection. […]
measuredParameter: AUC(0-t)

Task: Respond only with AUC(0-t) recorded for Cc1c(O)cccc1C(=O)N[C@@H](CSc1ccccc1)[C@H](O)CN1C[C@H]2CCCC[C@H]2C[C@H]1C(=O)NC(C)(C)C
Result: 61000 ng·h/mL
